Would you kindly list IC50 for each of these compounds?
# Target Or Test System: Human MGAT-2 (Homo sapiens (Human), UniProt Q3SYC2)
# Sequence (Q3SYC2 whole entry): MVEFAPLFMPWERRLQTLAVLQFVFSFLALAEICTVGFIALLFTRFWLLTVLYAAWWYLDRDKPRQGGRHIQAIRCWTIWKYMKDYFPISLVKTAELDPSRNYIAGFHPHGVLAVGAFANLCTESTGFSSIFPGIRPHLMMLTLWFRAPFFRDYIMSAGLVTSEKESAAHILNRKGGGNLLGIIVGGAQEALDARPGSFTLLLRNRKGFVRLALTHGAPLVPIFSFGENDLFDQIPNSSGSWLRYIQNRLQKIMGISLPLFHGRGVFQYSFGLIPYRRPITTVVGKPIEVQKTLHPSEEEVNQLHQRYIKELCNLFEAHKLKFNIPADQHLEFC
# Experiment Notes: MGAT SPA Assay;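 note: inhibition scaled between DMSO vehicle as full MGAT2 activity and membranes of uninfected Sf9 cells as blank, IC50 fitted by logistic curve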
# Format: biochemical
# Condition Notes: membranes from Sf9 cells expressing recombinant human MGAT2; 2-monooleoylglycerol and [3H]-oleoyl-CoA
Write the value in nM as a bare number.

Given the compound O=C1NC(c2ccc(OCCCC(F)(F)F)cc2)(C(F)(F)F)CC(c2ccc(OC(F)F)cc2)=C1NC(=O)c1ccno1 (stereo not shown) [Example 167] , what is its reported IC50?
8

Given the compound COc1ccc(NC(=O)C2=C(c3ccc(C)cc3C)CC(c3ccc(OCCCC(F)(F)F)cc3)(C(F)(F)F)NC2=O)cc1 (stereo not shown) [Example 148] , what is its reported IC50?
102

Given the compound Cc1ccc(C2=C(C(=O)Nc3ccc(O)cc3)C(=O)NC(c3ccc(OCCCC(F)(F)F)cc3)(C(F)(F)F)C2)cc1 (stereo not shown) [Example 122] , what is its reported IC50?
14

Given the compound Cc1ccc(C2=C(NC(=O)c3ccccc3C)C(=O)N[C@@](c3ccc(OCCCC(F)(F)F)cc3)(C(F)(F)F)C2)cc1 [Example 105] , what is its reported IC50?
672
